Test system: Mycobacterium tuberculosis
PROTOCOL: Binding affinity to Mycobacterium tuberculosis RpsA Ala438 deleted mutant C-terminal domain (285 to 476 residues) assessed as quenching rate constant by fluorescence quenching titration based analysis
READOUT_KIND: Kq

Query: Can you look up Kq on Mycobacterium tuberculosis for `CCOC(=O)CSc1nc2nc[nH]c2c(=O)[nH]1` ?
Reply: 3.4 10^12/M/s

Query: Item: `Cc1ccc(CNC(=O)CSc2nc3nc[nH]c3c(=O)[nH]2)cc1` Test system: Mycobacterium tuberculosis Read-out: Kq Value: ?
Reply: 3.68 10^12/M/s

Query: Query for Mycobacterium tuberculosis: what Kq does the record show for `Cc1cccc(CNC(=O)CSc2nc3nc[nH]c3c(=O)[nH]2)c1` ?
Reply: 2.54 10^12/M/s

Query: Identify the measured Kq of `Cc1ccc(CNC(=O)COc2cc(O)c3c(=O)cc(-c4ccccc4)oc3c2)cc1` for Mycobacterium tuberculosis.
Reply: 6.64 10^12/M/s

Query: Lab request: please report Kq under test system Mycobacterium tuberculosis for `Cc1cccc(CNC(=O)COc2cc(O)c3c(=O)cc(-c4ccccc4)oc3c2)c1`
Reply: 2.33 10^12/M/s

Query: // map `O=C(O)CSc1nc2nc[nH]c2c(=O)[nH]1` to recorded Kq (system: Mycobacterium tuberculosis)
Reply: 1.91 10^12/M/s
